meta.source: patent US9265781B2

PROTOCOL_TEXT: Caking test (Experiment 1-4)
Format: physicochemical
Parameters: key: “Caked”, (+): Sample clearly keeps the hemispherical shape of the bottom of the tube even when placed on the plate; “Slightly caked”, (±): Sample slightly but distinguishably shows the hemispherical shape of the bottom of the tube; “Not caked” (−): Sample does not keep the hemispherical shape of the bottom of the tube
CONDITION_LABEL: 1 g in 14-ml polypropylene tube, 50° C., 24 hours, macroscopic observation
ENDPOINT_LABEL: Caking

Solved entries:
MOLECULE	Caking
O=C1O[C@H]([C@@H](O)CO)C(O)=C1O[C@H]1O[C@H](CO)[C@@H](O)[C@H](O)[C@H]1O [Test sample 9, 2-O-α-D-glucosyl-L-ascorbic acid]	+
O=C1O[C@H]([C@@H](O)CO)C(O)=C1O[C@H]1O[C@H](CO)[C@@H](O)[C@H](O)[C@H]1O [Test sample 2, 2-O-α-D-glucosyl-L-ascorbic acid]	+
O=C1O[C@H]([C@@H](O)CO)C(O)=C1O[C@H]1O[C@H](CO)[C@@H](O)[C@H](O)[C@H]1O [Comparative Example 1, 2-O-α-D-glucosyl-L-ascorbic acid]	+
O=C1O[C@H]([C@@H](O)CO)C(O)=C1O[C@H]1O[C@H](CO)[C@@H](O)[C@H](O)[C@H]1O [Test sample 22, 2-O-α-D-glucosyl-L-ascorbic acid]	−
O=C1O[C@H]([C@@H](O)CO)C(O)=C1O[C@H]1O[C@H](CO)[C@@H](O)[C@H](O)[C@H]1O [Example 1, 2-O-α-D-glucosyl-L-ascorbic acid]	−

// Caking lookup, molecule = O=C1O[C@H]([C@@H](O)CO)C(O)=C1O[C@H]1O[C@H](CO)[C@@H](O)[C@H](O)[C@H]1O [Example 4, 2-O-α-D-glucosyl-L-ascorbic acid] , result: −

// Caking lookup, molecule = O=C1O[C@H]([C@@H](O)CO)C(O)=C1O[C@H]1O[C@H](CO)[C@@H](O)[C@H](O)[C@H]1O [Test sample 20, 2-O-α-D-glucosyl-L-ascorbic acid] , result: +

// Caking lookup, molecule = O=C1O[C@H]([C@@H](O)CO)C(O)=C1O[C@H]1O[C@H](CO)[C@@H](O)[C@H](O)[C@H]1O [Test sample 4, 2-O-α-D-glucosyl-L-ascorbic acid] , result: −

* * *

PROTOCOL_TEXT: Caking test (Experiment 1-4)
Type: physicochemical
Set-up: key: “Caked”, (+): Sample clearly keeps the hemispherical shape of the bottom of the tube even when placed on the plate; “Slightly caked”, (±): Sample slightly but distinguishably shows the hemispherical shape of the bottom of the tube; “Not caked” (−): Sample does not keep the hemispherical shape of the bottom of the tube
CONDITION_LABEL: 1 g in 14-ml polypropylene tube, 50° C., 24 hours, macroscopic observation
ENDPOINT_LABEL: Caking

MOLECULE	Caking
O=C1O[C@H]([C@@H](O)CO)C(O)=C1O[C@H]1O[C@H](CO)[C@@H](O)[C@H](O)[C@H]1O [Test sample 1, 2-O-α-D-glucosyl-L-ascorbic acid]	−
O=C1O[C@H]([C@@H](O)CO)C(O)=C1O[C@H]1O[C@H](CO)[C@@H](O)[C@H](O)[C@H]1O [Example for Reference 1, 2-O-α-D-glucosyl-L-ascorbic acid]	−
O=C1O[C@H]([C@@H](O)CO)C(O)=C1O[C@H]1O[C@H](CO)[C@@H](O)[C@H](O)[C@H]1O [Test sample 3, 2-O-α-D-glucosyl-L-ascorbic acid]	+
O=C1O[C@H]([C@@H](O)CO)C(O)=C1O[C@H]1O[C@H](CO)[C@@H](O)[C@H](O)[C@H]1O [Test sample 21, 2-O-α-D-glucosyl-L-ascorbic acid]	−
O=C1O[C@H]([C@@H](O)CO)C(O)=C1O[C@H]1O[C@H](CO)[C@@H](O)[C@H](O)[C@H]1O [Example 2, 2-O-α-D-glucosyl-L-ascorbic acid]	−
O=C1O[C@H]([C@@H](O)CO)C(O)=C1O[C@H]1O[C@H](CO)[C@@H](O)[C@H](O)[C@H]1O [Test sample 10, 2-O-α-D-glucosyl-L-ascorbic acid]	+

// Caking lookup, molecule = O=C1O[C@H]([C@@H](O)CO)C(O)=C1O[C@H]1O[C@H](CO)[C@@H](O)[C@H](O)[C@H]1O [Example 5, 2-O-α-D-glucosyl-L-ascorbic acid] , result: −

// Caking lookup, molecule = O=C1O[C@H]([C@@H](O)CO)C(O)=C1O[C@H]1O[C@H](CO)[C@@H](O)[C@H](O)[C@H]1O [Test sample 28, 2-O-α-D-glucosyl-L-ascorbic acid] , result: +

// Caking lookup, molecule = O=C1O[C@H]([C@@H](O)CO)C(O)=C1O[C@H]1O[C@H](CO)[C@@H](O)[C@H](O)[C@H]1O [Test sample 7, 2-O-α-D-glucosyl-L-ascorbic acid] , result: −

// Caking lookup, molecule = O=C1O[C@H]([C@@H](O)CO)C(O)=C1O[C@H]1O[C@H](CO)[C@@H](O)[C@H](O)[C@H]1O [Comparative Example 2, 2-O-α-D-glucosyl-L-ascorbic acid] , result: +

// Caking lookup, molecule = O=C1O[C@H]([C@@H](O)CO)C(O)=C1O[C@H]1O[C@H](CO)[C@@H](O)[C@H](O)[C@H]1O [Example 7, 2-O-α-D-glucosyl-L-ascorbic acid] , result: −
